The origin of these recorded values is ChEMBL document CHEMBL1137172.

experiment: Partition coefficient (logP); type: physicochemical; details: octanol/water
Recorded measurements of logP, one per entry
Please state the value as a number alone, without comment.

Solved entries:
[[record]]
givensmiles = "COc1cccnc1C(=O)c1oc2cc(-c3ccccc3)cc(O)c2c1C"
valuetype = "logP"
valuemeasured = 2.2

[[record]]
givensmiles = "COc1ccc(C(=O)c2oc3cc(-c4ccccc4)cc(O)c3c2C)c(OC)c1"
valuetype = "logP"
valuemeasured = 2.6

[[record]]
givensmiles = "CCOC(=O)c1oc2cc(-c3ccccc3)cc(O)c2c1C"
valuetype = "logP"
valuemeasured = 2.6

[[record]]
givensmiles = "CCOC(=O)c1oc2cc(-c3cccc(F)c3)cc(O)c2c1C"
valuetype = "logP"
valuemeasured = 2.7


Given the molecule COc1ccc(C(=O)c2[nH]c3cc(-c4cccc(F)c4)cc(O)c3c2C)c(OC)c1 , write its reported logP.
2.7

Given the molecule CCOC(=O)c1[nH]c2cc(-c3ccccc3)cc(O)c2c1C , write its reported logP.
2.6

Given the molecule COc1ccc(C(=O)c2oc3cc(-c4cccc(F)c4)cc(O)c3c2C)c(OC)c1 , write its reported logP.
2.7

Given the molecule COc1cccnc1C(=O)c1oc2cc(-c3cccc(F)c3)cc(O)c2c1C , write its reported logP.
2.3
